experiment: NCI Yeast Anticancer Drug Screen. Data for the wt2 strain (AID 169);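 also: 0% = growth of vehicle-treated yeast cultures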; details: S. cerevisiae wt2 strain growth inhibition; at 1.2 µM; stronger effect = higher value
About 79,000 compounds went through this panel and 15% of them were active in at least one assay; those are over-represented in the sample as a whole.
REPORTED_METRIC: growth inhibition (%)
Express it in %; write the number only.

For this compound ( CC[C@]1(O)CC(OC2CC(N(C)C)C(O)C(C)O2)c2c(cc3c(c2O)C(=O)c2c(O)cccc2C3=O)[C@@H]1C(=O)OC (stereo partly drawn) ), measured growth inhibition is -6

For this compound ( S=C1NC2(CCCCC2)NC12CCCCC2 ), measured growth inhibition is -2

For this compound ( CN(C)CCSC1=Nc2ccc(Cl)cc2C(c2ccccc2Cl)=NC1 ), measured growth inhibition is -3

For this compound ( CCOC(=O)C1=C(C(=O)OCC)C2(c3ccccc3)N(O1)c1ccccc1C2(C)C (stereo not drawn) ), measured growth inhibition is -2

For this compound ( C[C@@]12CCC(=O)C=C1CC[C@H]1C2=CC[C@]2(C)C1CC[C@@]2(C)O (stereo partly drawn) ), measured growth inhibition is -26

For this compound ( [O-][n+]1c2cccc(O)c2[n+]([O-])c2cccc(O)c21 ), measured growth inhibition is 2

For this compound ( CCS(=O)(=O)[O][Sn]([CH2]C)([CH2]C)[O]S(=O)(=O)CC ), measured growth inhibition is -32

For this compound ( CNC(=O)OCC1C2=C(C(=O)C(C)=C(N)C2=O)N2CC3C(N3C)C12OC (stereo not drawn) ), measured growth inhibition is -33

For this compound ( CCN(CCCl)CCCCNc1c2ccccc2nc2ccc(OC)cc12 ), measured growth inhibition is 4

For this compound ( CNC(Cc1ccccc1)c1ccc(OC)c(OC)c1 (stereo not drawn) ), measured growth inhibition is -20

For this compound ( CC1=C(N2CC2)C(=O)c2ccccc2C1=O ), measured growth inhibition is 0

For this compound ( Oc1c(Br)cc(Br)cc1Br ), measured growth inhibition is -8

For this compound ( COc1cccc2c1C(=O)c1c(O)c3c(c(O)c1C2=O)C[C@@](O)(C(C)=O)C[C@@H]3OC1CC(N)C(OC2CC(O)C(O)C(C)O2)C(C)O1 (stereo partly drawn) ), measured growth inhibition is -57

For this compound ( CC1CN1C1=C(Cl)C(=O)C(N2CC2C)=C(Cl)C1=O (stereo not drawn) ), measured growth inhibition is -6

For this compound ( O=[N+]([O-])c1oc2ccc3ccccc3c2c1CCO ), measured growth inhibition is 5

For this compound ( OCC(O)C(O)CO (stereo not drawn) (tested in a mixture with another compound) ), measured growth inhibition is -2

For this compound ( CCCCCCCCCCCCCCCCP(=O)(O)OCC(N)C(=O)O (stereo not drawn) ), measured growth inhibition is -1

For this compound ( CC[C@@]1(O)C(=O)OCc2c1cc1n(c2=O)Cc2cc3c(NC(=O)CN)cccc3nc2-1 ), measured growth inhibition is -1

For this compound ( O=C1NC(=S)NC(=O)C1=C/C=C/c1ccccc1 ), measured growth inhibition is -15

For this compound ( c1ccc(N=c2nc(N3CCOCC3)ss2)cc1 ), measured growth inhibition is -1

For this compound ( O=S(=O)(O)/C(=C\c1ccccc1)c1ccccc1 (tested in a mixture with another compound) ), measured growth inhibition is -2

For this compound ( Oc1cccnc1[Se] ), measured growth inhibition is -5

For this compound ( COc1cc2ccccc2c2cc([N+](=O)[O-])oc12 ), measured growth inhibition is 5

For this compound ( Oc1ccc(Cl)cc1Cc1ccccc1 ), measured growth inhibition is -53

For this compound ( COC1C(O)C(C)OC(OC2C(Oc3cccc4c(O)c5c(=O)oc6ccc(C)c7c(=O)oc(c34)c5c67)OC(C)C(O)C2O)C1O (stereo not drawn) ), measured growth inhibition is 0

For this compound ( NNc1ccccc1Cl ), measured growth inhibition is 42

For this compound ( CCCCN(CCCC)CC(C(C)=O)C(c1ccccc1)c1c(O)c2ccccc2oc1=O (stereo not drawn) ), measured growth inhibition is 0

For this compound ( CC1(Cl)CC(C)(/C=C/Cl)C(Cl)CC1Cl (stereo not drawn) ), measured growth inhibition is 0

For this compound ( Cn1cnc(N)c1C(=N)[Se] ), measured growth inhibition is 10

For this compound ( Cc1cc[n+](C2=C(Nc3cccc(C(F)(F)F)c3)C(=O)c3ccccc3C2=O)cc1 ), measured growth inhibition is 1

For this compound ( Cc1ccc2c(c1)C1(C)c3cc(C)ccc3SP1S2 (stereo not drawn) ), measured growth inhibition is 13

For this compound ( CC1=C2C(=C[C@@](C)(CO)[C@@H]2O)C(=O)[C@](C)(O)C12CC2 ), measured growth inhibition is -2

For this compound ( COC(=O)C1C2c3ccccc3C(c3ccccc32)C1C(=O)OC (stereo not drawn) ), measured growth inhibition is -2

For this compound ( CS(=O)(=O)OCCN(CCOS(C)(=O)=O)c1ccc(C=O)cc1 ), measured growth inhibition is -1

For this compound ( O=S(=O)(O)c1ccc(Cl)cc1.[Cd] ), measured growth inhibition is 2

For this compound ( CCOP(=S)(S)OCC.[Pd] ), measured growth inhibition is -2

For this compound ( C=C[C@H]1CN2CC[C@H]1C[C@@H]2[C@@H](O)c1ccnc2ccccc12 ), measured growth inhibition is 0

For this compound ( Nc1nc(N)c2c(Cl)c(CNc3ccc(C(=O)NC(CC(=O)O)C(=O)O)cc3)ccc2n1 (stereo not drawn) ), measured growth inhibition is -42

For this compound ( O=C(c1ccccc1)C1C(c2ccccc2[N+](=O)[O-])N1C1CCCCC1 (stereo not drawn) ), measured growth inhibition is 1

For this compound ( CSc1ccccc1[As](C)C ), measured growth inhibition is -1

For this compound ( CN(CCc1ccc(Br)cc1)CCN1CCCCC1 ), measured growth inhibition is 8

For this compound ( CCC(=O)OC1CCn2c1nc1c2C(=O)C(C)=C(N2CC2)C1=O (stereo not drawn) ), measured growth inhibition is -30

For this compound ( Cc1cccc(NC(=O)CBr)c1 ), measured growth inhibition is 1

For this compound ( Cc1ccc2c(c1N)C(=O)c1ccccc1C2=O ), measured growth inhibition is -3

For this compound ( OC(c1ccc(Br)cc1)C(Cl)(Cl)Cl (stereo not drawn) ), measured growth inhibition is -17

For this compound ( CNCC(O)c1ccc(O)c(O)c1.[Pt].c1ccc([PH+](c2ccccc2)c2ccccc2)cc1.c1ccc([PH+](c2ccccc2)c2ccccc2)cc1 ), measured growth inhibition is -2

For this compound ( OC1CCCC2CCC[N-]C12.OC1CCCC2CCC[N-]C12.[O]=[V][OH] (stereo not drawn) ), measured growth inhibition is -17

For this compound ( CC[PH+](CC)CC.CC[PH+](CC)CC.[Au] ), measured growth inhibition is -13

###

Kindly supply the reported growth inhibition values for the records listed here.
test: NCI Yeast Anticancer Drug Screen. Data for the sgs1 strain (AID 173);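 also: 0% = growth of vehicle-only control cultures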; conditions: S. cerevisiae sgs1 mutant, at 3.7 µM, stronger effect = higher value
This is part of a sample that, as a whole, favours compounds with a hit. Of some 79,000 tested, about 15% had one in any assay.
Express it in %; write the number only.

For this compound ( C/C(CCl)=N/NC1=NC(c2ccccc2Cl)P(=O)(NCCCNP2(=O)SC(N/N=C(/C)CCl)=NC2c2ccccc2Cl)S1 (stereo unspecified) ), measured growth inhibition is -2

For this compound ( CC[C@](O)(C(=O)O)c1cc2n(c(=O)c1CO)Cc1cc3ccccc3nc1-2 ), measured growth inhibition is 64

For this compound ( O=c1oc2ccccc2c(O)c1C(c1ccc2c(c1)Cc1ccccc1-2)c1c(O)c2ccccc2oc1=O ), measured growth inhibition is 29

For this compound ( CCCCCCCCCC[Se]C#N ), measured growth inhibition is 1

For this compound ( CSc1ccccc1[As](C)C ), measured growth inhibition is 34

For this compound ( COc1cccc2c1C(=O)c1c(O)c3c(c(O)c1C2=O)C[C@@](O)(C(C)=O)C[C@@H]3OC1CC(N)C(OC2CC(O)C(O)C(C)O2)C(C)O1 (stereo partly specified) ), measured growth inhibition is -4

For this compound ( Nc1nc(N)c(-c2ccc(Cl)c(Cl)c2)c(CP(Cl)(Cl)(Cl)Br)n1 ), measured growth inhibition is 6

For this compound ( Cc1cccc(NC(=O)CBr)c1 ), measured growth inhibition is 55

For this compound ( Nc1ccccc1C(=O)OCCc1ccccc1 ), measured growth inhibition is -32

For this compound ( O=C(c1ccccc1)C1C(c2ccccc2[N+](=O)[O-])N1C1CCCCC1 (stereo unspecified) ), measured growth inhibition is 21

For this compound ( C[C@@]12CCC(=O)C=C1CC[C@H]1C2=CC[C@]2(C)C1CC[C@@]2(C)O (stereo partly specified) ), measured growth inhibition is -6

For this compound ( COC(=O)C1=C(C(=O)OC)C2OC1c1cc3ccccc3cc12 ), measured growth inhibition is 45

For this compound ( O=c1oc2ccccc2c(O)c1C(c1ccc2ccccc2c1)c1c(O)c2ccccc2oc1=O ), measured growth inhibition is 30

For this compound ( C=CC[N+]12CN3CN(CN(C3)C1)C2 ), measured growth inhibition is -17

For this compound ( O=[N+]([O-])O.[NH-]C1CCCCC1[NH-].[NH-]C1CCCCC1[NH-].[NH-]C1CCCCC1[NH-].[OH-].[OH-].[OH-].[Pt+4].[Pt+4].[Pt+4] (stereo unspecified) ), measured growth inhibition is -30

For this compound ( CC[C@@]1(O)C(=O)OCc2c1cc1n(c2=O)Cc2cc3ccccc3nc2-1 ), measured growth inhibition is 82

For this compound ( CCC1(O)C(=O)OCc2c1cc1n(c2=O)Cc2cc3cc(Cl)ccc3nc2-1 (stereo unspecified) ), measured growth inhibition is 46

For this compound ( O=C(O)CCCc1cc(I)c(N(CCCl)CCCl)c(I)c1 ), measured growth inhibition is -46

For this compound ( O=P(CCCCP(=O)(c1ccccc1)c1ccccc1)(c1ccccc1)c1ccccc1.[Cl][Sn]([Cl])([c]1ccccc1)[c]1ccccc1 ), measured growth inhibition is 15

For this compound ( CCCCCCCCCCCCCCCCP(=O)(O)OCC(N)C(=O)O (stereo unspecified) ), measured growth inhibition is -58

For this compound ( Oc1cccc2cccnc12 ), measured growth inhibition is 94
